Assay: Inhibition of C-terminal Nano-luc tagged UVRAG/C-terminal Halo-tagged Beclin 1 (unknown origin) PPI tranfected with HEK293T cells using […] incubated for 24 hrs by […] assay
Format: cell-based, Homo sapiens
pIC50: −log10 of the molar value.
quantity measured: pIC50

- CCCN1C(=O)COc2ccc(-c3cccc(C)c3C)cc21: 4.37

====

Assay: Kinetic aqueous solubility of compound in PBS at pH 7.4 by absorbance based analysis
Format: physicochemical
Conditions: read-out: Kinetic_solubility
quantity measured: solubility kinetic

* CCCN1C(=O)COc2ccc(NS(=O)(=O)c3cccc(C)c3)cc21 | > 100 µM
* O=C1COc2ccc(Nc3ccc(Cl)cc3Cl)cc2N1Cc1noc(C2CCC2)n1 | 50 µM
* CCCN1C(=O)COc2ccc(Nc3cccc(Br)c3)cc21 | 50 µM
* O=C1COc2ccc(-c3ccccc3)cc2N1Cc1noc(C2CCC2)n1 | > 100 µM
* O=C1COc2ccc(-c3ccccc3Cl)cc2N1Cc1noc(C2CCC2)n1 | > 100 µM
* Cc1cccc(NS(=O)(=O)c2ccc3c(c2)N(CC2CCCCC2)C(=O)CO3)c1C | > 100 µM

====

Assay: Selectivity ratio of inhibition of C-terminal Nano-luc tagged UVRAG/C-terminal Halo-tagged Beclin 1 (unknown origin) PPI tranfected with HEK293T cells to inhibition of C-terminal Nano-luc tagged ATG14L/C-terminal Halo-tagged Beclin 1 (unknown origin) PPI tranfected with HEK293T cells
quantity measured: Selectivity ratio

- CC(C)c1ccccc1Nc1ccc2c(c1)N(Cc1noc(C3CCC3)n1)C(=O)CO2: 1.27
- O=C1COc2ccc(-c3ccccc3Cl)cc2N1Cc1noc(C2CCC2)n1: 1.17
- CCCN1C(=O)COc2ccc(Nc3ccccc3)cc21: 1.54
- CCCN1C(=O)COc2ccc(Nc3ccccc3Br)cc21: 1.49
- O=C1COc2ccc(-c3ccccc3C(F)(F)F)cc2N1Cc1noc(C2CCC2)n1: 1.27
- CCCN1C(=O)COc2ccc(-c3cccc(C)c3)cc21: 1.59
- CCCN1C(=O)COc2ccc(Nc3cccc(Cl)c3C)cc21: 1.02
- Cc1cccc(Nc2ccc3c(c2)N(Cc2noc(C4CCC4)n2)C(=O)CO3)c1C: 1.5
- O=C1COc2ccc(Nc3ccccc3F)cc2N1Cc1noc(C2CCC2)n1: 1.23
- CC(C)c1ccccc1-c1ccc2c(c1)N(Cc1noc(C3CCC3)n1)C(=O)CO2: 1.29
- O=C1COc2ccc(-c3cccc(Cl)c3)cc2N1Cc1noc(C2CCC2)n1: 1.32
- Cc1ccccc1-c1ccc2c(c1)N(Cc1noc(C3CCC3)n1)C(=O)CO2: 1.01
- O=C1COc2ccc(-c3cccc(F)c3)cc2N1Cc1noc(C2CCC2)n1: 1.11
- O=C1COc2ccc(-c3cccc(Cl)c3Cl)cc2N1Cc1noc(C2CCC2)n1: 1.17
- CC(C)c1cccc(Nc2ccc3c(c2)N(Cc2noc(C4CCC4)n2)C(=O)CO3)c1: 1.18
- O=C1COc2ccc(-c3ccccc3O)cc2N1Cc1noc(C2CCC2)n1: 1.15
- CCCN1C(=O)COc2ccc(-c3ccc(Cl)cc3Cl)cc21: 1.25
- Cc1cccc(-c2ccc3c(c2)N(Cc2noc(C4CCC4)n2)C(=O)CO3)c1Cl: 1.45
- CC(C)c1cccc(-c2ccc3c(c2)N(Cc2noc(C4CCC4)n2)C(=O)CO3)c1: 1.21
- CCCN1C(=O)COc2ccc(-c3ccc(F)cc3F)cc21: 1.32
- CCCN1C(=O)COc2ccc(-c3ccccc3C)cc21: 1.3
- O=C1COc2ccc(Nc3ccccc3Cl)cc2N1Cc1noc(C2CCC2)n1: 1.11
- Cc1cccc(-c2ccc3c(c2)N(Cc2noc(C4CCC4)n2)C(=O)CO3)c1: 1.13

// data source = ChEMBL document CHEMBL6096696
